The measurements presented in this section are drawn from patent US20250154231A1.

Target System: SARS-CoV-1 S protein (SARS-CoV-1, UniProt P59594 14-1195)
Assay Explanation: ELISA
Parameter Measured: binding result

Omi35 (antibody, V domains shown) VH: QVQLVESGGGLVQPGRSLRLSCAASGFTFDDYAMHWVRQAPGKGLEWVSGSTWNSGTIDYADSVKGRFTISRDNAKNSLYLQMNSLRAEDTALYYCAKDRFRKGCSSTGCYKENYGMDVWGQGTTVTVSS VL: QSVVTQPPSVSVAPGQTARITCGGTNIGSKSVHWYQQKPGQAPVLVVYDDSDRPSGIPERFSGSNSGNTATLTITWVEAGDEADYYCQVWDSSSDNVLFGGGTKLTVL ... no binding
Omi32 (antibody, V domains shown) VH: EVQLVESGGGVVQPGRSLRLSCAASGFTFSNYGMHWVRQAPGKGLEWVAVYWYDGGNKFYADSVKGRFTISRDNSKNTLYLQMNSLRVEDTAVYYCARDTAPPDYWGQGTLVTVSS VL: AIRMTQSPGTLSLSPGERATLSCRASQSISSSFLAWYQQKPGQAPRLLIYGASSRATGIPDRFSGSGSGTDFTLTISRLEPEDFAVYYCQQYGTSPRLTFGGGTKVDIK ... no binding
